Reference source for all entries: patent US10696677B2

- Tgt: hCB1 (Homo sapiens)
- Sequence (P21554 whole entry): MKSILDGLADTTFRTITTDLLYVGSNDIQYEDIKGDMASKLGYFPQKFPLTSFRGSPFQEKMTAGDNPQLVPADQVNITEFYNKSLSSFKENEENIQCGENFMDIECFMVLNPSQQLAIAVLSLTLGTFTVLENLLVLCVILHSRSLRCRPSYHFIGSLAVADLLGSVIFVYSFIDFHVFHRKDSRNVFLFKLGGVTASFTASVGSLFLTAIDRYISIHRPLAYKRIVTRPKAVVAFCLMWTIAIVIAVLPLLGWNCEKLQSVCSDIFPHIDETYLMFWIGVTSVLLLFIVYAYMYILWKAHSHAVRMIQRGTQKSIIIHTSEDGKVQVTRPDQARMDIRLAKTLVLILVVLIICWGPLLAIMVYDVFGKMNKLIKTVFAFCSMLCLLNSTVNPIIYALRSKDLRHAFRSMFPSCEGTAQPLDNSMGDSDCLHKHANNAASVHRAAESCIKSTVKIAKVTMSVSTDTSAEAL
- Assay Protocol: radioligand displacement binding at CB1 (membranes of CHO-K1 cells over-expressing receptor)
- Assay Setup: CB1 versus CB2

Structure Notation: N=C(NC1CCN(c2ncnc3c2nc(-c2ccccc2Cl)n3-c2ccc(Cl)cc2)CC1)c1ccc(F)cc1
Relation: >
CB2 Ki/CB1 Ki selectivity ratio: 11

Structure Notation: Clc1ccc(-n2c(-c3ccccc3Cl)nc3c(N4CCC(Nc5ccccn5)CC4)ncnc32)cc1
Relation: =
CB2 Ki/CB1 Ki selectivity ratio: 2300

Structure Notation: O=S(=O)(NC1CCN(c2ncnc3c2nc(-c2ccccc2Cl)n3-c2ccc(Cl)cc2)CC1)c1ccc(F)cc1F
Relation: =
CB2 Ki/CB1 Ki selectivity ratio: 26000

Structure Notation: CN(Cc1ccccc1)C1CCN(c2ncnc3c2nc(-c2ccccc2Cl)n3-c2ccc(Cl)cc2)CC1
Relation: =
CB2 Ki/CB1 Ki selectivity ratio: 98

* * *

Consider the following molecules and their measured melting point readings.

Molecule: Cn1cc(-n2c(-c3ccccc3Cl)nc3c(N4CCC(NS(=O)(=O)c5ccc(F)c(F)c5)CC4)ncnc32)cn1 [Compound 12]
melting point: 162 to 164 °C
//
Molecule: O=S(=O)(NC1CCN(c2ncnc3c2nc(-c2ccccc2Cl)n3-c2ccc(Cl)cc2)CC1)c1ccc(F)cc1 [Compound 4]
melting point: 196 to 197 °C
//
Molecule: O=C(NCC1CCC(F)(F)CC1)NC1CCN(c2ncnc3c2nc(-c2ccccc2Cl)n3-c2ccc(Cl)cc2)CC1 [Compound 127]
melting point: 135 to 137 °C
//
Molecule: O=C(Nc1ccc(F)cc1F)N1CCN(c2ncnc3c2nc(-c2ccccc2Cl)n3-c2ccc(Cl)cc2)CC1 [Compound 57]
melting point: 220 to 221 °C
//
Molecule: CC1(NC(=O)NC2CCC(F)(F)CC2)CCN(c2ncnc3c2nc(-c2ccccc2Cl)n3-c2ccc(Cl)cc2)CC1
melting point: 175 to 177 °C
//
Molecule: O=C(Nc1ccc(C(F)(F)F)nc1)NC1CCN(c2ncnc3c2nc(-c2ccccc2Cl)n3-c2ccc(Cl)cc2)CC1 [Compound 24]
melting point: 140 to 142 °C
//
Molecule: O=C(Nc1ccc(F)c(F)c1)N1CCN(c2ncnc3c2nc(-c2ccccc2Cl)n3-c2ccc(Cl)cc2)CC1 [Compound 42]
melting point: 205 to 207 °C
//
Molecule: O=S(=O)(NC1CCN(c2ncnc3c2nc(-c2ccccc2Cl)n3-c2ccc(Cl)cc2)CC1)c1ccccc1F [Compound 1]
melting point: 185 to 187 °C
//
Molecule: O=C(NCc1ccc(F)cc1)NC1CCN(c2ncnc3c2nc(-c2ccccc2Cl)n3-c2ccc(Cl)cc2)CC1 [Compound 128]
melting point: 184 to 185 °C
//
Molecule: O=C(Nc1ccccn1)N1CCN(c2ncnc3c2nc(-c2ccccc2Cl)n3-c2ccc(Cl)cc2)CC1 [Compound 122]
melting point: 120 to 122 °C
//
Molecule: CCCCC(=O)NC1CCN(c2ncnc3c2nc(-c2ccccc2Cl)n3-c2ccc(C(F)(F)F)nc2)CC1 [Compound 14]
melting point: 192 to 193 °C
//
Molecule: Cn1ccc(-n2c(-c3ccccc3Cl)nc3c(N4CCN(Cc5ccccc5Cl)CC4)ncnc32)n1 [Compound 51]
melting point: 150 to 152 °C
//
Molecule: Cc1cc(NC(=O)N2CCN(c3ncnc4c3nc(-c3ccccc3Cl)n4-c3ccc(Cl)cc3)CC2)no1 [Compound 50]
melting point: 230 to 231 °C
//
Molecule: Cc1c(CN2CCN(c3ncnc4c3nc(-c3ccccc3Cl)n4-c3ccc(Cl)cc3)CC2)cnn1C [Compound 114]
melting point: 138 to 139 °C
//
Molecule: O=C(Nc1ccccc1F)N1CCN(c2ncnc3c2nc(-c2ccccc2Cl)n3-c2ccc(Cl)cc2)CC1 [Compound 56]
melting point: 214 to 215 °C
//
Molecule: O=C(Nc1ccccc1F)NC1CCN(c2ncnc3c2nc(-c2ccccc2Cl)n3-c2ccc(C(F)(F)F)nc2)CC1 [Compound 20]
melting point: 227 to 228 °C
//
Molecule: NC(=O)c1ccc(-n2c(-c3ccccc3Cl)nc3c(N4CCN(Cc5ccccc5Cl)CC4)ncnc32)cc1 [Compound 48]
melting point: 120 to 122 °C
//
Molecule: O=C(Nc1ccccc1)N1CCN(c2ncnc3c2nc(-c2ccccc2Cl)n3-c2ccc(Cl)cc2)CC1 [Compound 121]
melting point: 121 to 123 °C
//
Molecule: O=C(NCC1CCCCC1)NC1CCN(c2ncnc3c2nc(-c2ccccc2Cl)n3-c2ccc(C(F)(F)F)nc2)CC1 [Compound 16]
melting point: 230 to 232 °C
